Experiment: 50% lethal dose (LD50) by the up and down method; therapeutic index
Format: in vivo
Settings: mouse, in vivo; male mice, bodyweight 18 to 22 g; up and down method
READOUT_KIND: log10 LD50 (log10 of the value in mg/kg)
The figures below represent log10 of LD50, where LD50 is stated in mg/kg.

Cc1cccc(C)c1NC(=O)C(C)C12CCCN1CCC2 (stereo not drawn)
1.96

Incoming: # query: log10 LD50 of entry Cc1cccc(C)c1NC(=O)[C@H](C)C12CCCN1CCC2 [(2R)(-)SUN3341]
Outgoing: 1.83

Incoming: # query: log10 LD50 of entry CCC(C(=O)Nc1c(C)cccc1C)C12CCCN1CCC2 (stereo not drawn)
Outgoing: 1.41

Incoming: # query: log10 LD50 of entry Cc1cccc(C)c1NC(=O)[C@@H](C)C12CCCN1CCC2 [(2S)(+)-SUN3341]
Outgoing: 1.90

Incoming: # query: log10 LD50 of entry Cc1cccc(C)c1NC(=O)C(c1ccccc1)C12CCCN1CCC2 (stereo not drawn)
Outgoing: 1.34

Incoming: # query: log10 LD50 of entry Cc1ccc(NC(=O)C(C)C23CCCN2CCC3)cc1 (stereo not drawn)
Outgoing: 2.60

----------
Test system: male mice
Test: 50% lethal dose (LD50) by the up and down method; therapeutic index
Type: in vivo
Details: ratio of LD50 to ED50
Here the recorded Therapeutic index is given for each entry.
Just the number.

Worked set:
Cc1cccc(C)c1NC(=O)C(c1ccccc1)C12CCCN1CCC2 (stereo not drawn)
7.1
Cc1cccc(C)c1NC(=O)[C@H](C)C12CCCN1CCC2 [(2R)(-)SUN3341]
26.0
Cc1ccc(NC(=O)C(C)C23CCCN2CCC3)cc1 (stereo not drawn)
3.4
CCC(C(=O)Nc1c(C)cccc1C)C12CCCN1CCC2 (stereo not drawn)
3.1
Cc1cccc(C)c1NC(=O)[C@@H](C)C12CCCN1CCC2 [(2S)(+)-SUN3341]
3.3

Moving on to the next compound.
Incoming: # query: Therapeutic index of entry Cc1cccc(C)c1NC(=O)C(C)C12CCCN1CCC2 (stereo not drawn)
Outgoing: 4.0

----------
Here the recorded ED50 is given for each entry.
Test system: ventricular flutter and fibrillation
Assay: Antiarrhythmic activity: prevention of ventricular flutter and fibrillation in mice caused to inhale chloroform
Format: in vivo, male mice of ddy strain
Conditions: Mus musculus, sc, 0.5 h; subcutaneous, 30 minutes before chloroform inhalation; Litchfield and Wilcoxon; 95% confidence limit in parentheses
Method: In accordance with the method described by J. W. Lawson [Journal of pharmacology and Experimental Therapeutics, 160, 22, (1966)], male mice of ddy strain were caused to inhale chloroform and when respiration was arrested, electrocardiography was performed to observe the ventricular flutter and fibrillation. These abnormalities of the cardiac ventricle are prevented if an antiarrhythmic agent is previously administered. […]
Expressed in mg/kg, but write only the number.

CCC(C(=O)Nc1c(C)cccc1C)C12CCCN1CCC2 (stereo not drawn)
8.5
Cc1cccc(C)c1NC(=O)C(c1ccccc1)C12CCCN1CCC2 (stereo not drawn)
3.1
Cc1cccc(C)c1NC(=O)[C@@H](C)C12CCCN1CCC2 [(2S)(+)-SUN3341]
24

Incoming: Test system ventricular flutter and fibrillation; read-out ED50; what value for Cc1cccc(C)c1NC(=O)C(C)C12CCCN1CCC2 (stereo not drawn) ?
Outgoing: 23

Incoming: Test system ventricular flutter and fibrillation; read-out ED50; what value for Cc1ccc(NC(=O)C(C)C23CCCN2CCC3)cc1 (stereo not drawn) ?
Outgoing: 115

Incoming: Test system ventricular flutter and fibrillation; read-out ED50; what value for Cc1cccc(C)c1NC(=O)[C@H](C)C12CCCN1CCC2 [(2R)(-)SUN3341] ?
Outgoing: 2.6
